system: panel of cancer cell lines; test: Cell viability (CellTiter-Glo) dose-response across cancer cell line panel; type: cell-based, human; conditions: Homo sapiens, SNU-398, SNU-398 cells;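 note: after 72 h compound incubation with CellTiter-Glo ATP readout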
property: pEC50
Scale: negative log10 of molar concentration, which is what pEC50 denotes.

[in] Look at this molecule and give its reported pEC50. COCc1ccccc1NCc1ccc([C@@H]2[C@H](O)CCCc3cncn32)c(-c2ccccc2Cl)c1
[out] 5.17

---

system: panel of cancer cell lines; assay: Cell viability (CellTiter-Glo) dose-response across cancer cell line panel; format: cell-based, human; conditions: Homo sapiens, NCI-H2228, NCI-H2228;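 note: after 72 h compound incubation with CellTiter-Glo ATP readout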
EC50 reference
Just the number in µM, nothing appended.

>>> print(df.to_string())
                                querysmiles               assayedsystem  property  measurementunits  experimentalresult
0  COCc1ccccc1NCc1ccc([C@H]2[C@@H](O)CCCc3cncn32)c(-c2ccccc2Cl)c1  panel of cancer cell lines      EC50                µM                4.93

From here, focus on the item given below.
[in] Look at this compound and give its reported EC50. NS(=O)(=O)OC[C@@H]1C[C@@H](n2ccc3c(N[C@H]4CCc5ccccc54)ncnc32)C[C@@H]1O
[out] 1.33
